What EC50 was measured for each of the following?
Biological target: EP3 (Homo sapiens (Human), UniProt P43115)
Sequence (P43115 whole entry): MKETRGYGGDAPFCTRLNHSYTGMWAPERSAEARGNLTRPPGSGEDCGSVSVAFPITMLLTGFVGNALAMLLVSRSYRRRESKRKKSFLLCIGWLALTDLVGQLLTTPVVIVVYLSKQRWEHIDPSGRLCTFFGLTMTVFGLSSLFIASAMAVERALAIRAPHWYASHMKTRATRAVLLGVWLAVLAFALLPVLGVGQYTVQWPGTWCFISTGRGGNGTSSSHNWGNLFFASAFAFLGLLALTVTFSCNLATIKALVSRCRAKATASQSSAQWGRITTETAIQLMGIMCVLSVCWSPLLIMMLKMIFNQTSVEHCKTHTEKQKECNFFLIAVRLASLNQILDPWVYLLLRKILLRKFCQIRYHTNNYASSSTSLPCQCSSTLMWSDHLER
Test: Other receptors FLIPR: EP3
Format: cell-based
Conditions: NA undefined in patent
Numbers only, in nM.

Sample answers from the record:
O=C(O)c1ccc(CC[C@H]2C(=O)CC[C@@H]2/C=C/C(O)Cc2cccc(Br)c2)cc1 (single isomer, unassigned)
180
O=C(O)c1ccc(CC[C@H]2C(=O)CC[C@@H]2/C=C/C(O)Cc2cccc(F)c2F)cc1 (single isomer, unassigned)
9950
O=C(O)c1ccc(CC[C@H]2C(=O)CC[C@@H]2/C=C/C(O)Cc2ccc(F)cc2)cc1 (single isomer, unassigned)
952

For the next question, use this molecule.
Quick check: EC50 of O=C(O)c1ccc(CC[C@H]2C(=O)CC[C@@H]2/C=C/C(O)Cc2ccc(F)c(F)c2)cc1 (single isomer, unassigned) ?
1510

====

Target: EP2 (Homo sapiens (Human))
Sequence (P43116 whole entry): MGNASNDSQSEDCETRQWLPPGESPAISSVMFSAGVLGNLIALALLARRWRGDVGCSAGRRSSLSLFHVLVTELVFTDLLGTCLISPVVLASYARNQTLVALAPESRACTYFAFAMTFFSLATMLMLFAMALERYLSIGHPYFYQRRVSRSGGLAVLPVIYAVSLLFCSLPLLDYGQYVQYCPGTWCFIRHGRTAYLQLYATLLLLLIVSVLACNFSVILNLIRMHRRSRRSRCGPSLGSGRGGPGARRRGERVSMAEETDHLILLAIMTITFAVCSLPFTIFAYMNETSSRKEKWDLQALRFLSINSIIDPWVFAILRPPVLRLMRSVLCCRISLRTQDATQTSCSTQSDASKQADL
Assay: EP2 cAMP functional assay
PROPERTY: pEC50
One number for each entry, as −log10 of the molar value.

O=C(O)c1ccc(CC[C@H]2C(=O)CC[C@@H]2/C=C/C(O)Cc2ccccc2F)cc1 (single isomer, unassigned) [Entry 22]
8.10
O=C(O)c1ccc(CC[C@H]2C(=O)CC[C@@H]2/C=C/C(O)Cc2cccc(F)c2)cc1 (single isomer, unassigned) [Entry 6]
8.00

Quick check: pEC50 of O=C(O)c1ccc(CC[C@H]2C(=O)CC[C@@H]2/C=C/C(O)Cc2ccc(F)c(F)c2)cc1 (single isomer, unassigned) ?
7.52

====

EP2 (Homo sapiens (Human)) measurements of pKi, listed per entry.
Numbers only, as −log10 of the molar value.

// input: 2 molecules below; output: pKi for each
1. O=C(O)c1ccc(CC[C@H]2C(=O)CC[C@@H]2/C=C/C(O)Cc2cc(F)ccc2F)cc1 (single isomer, unassigned) [Entry 28]
2. O=C(O)c1ccc(CC[C@H]2C(=O)CC[C@@H]2/C=C/C(O)Cc2cccc(Br)c2)cc1 (single isomer, unassigned) [Entry 9]

[5.89, 5.84]

// input: 2 molecules below; output: pKi for each
1. O=C(O)c1ccc(CC[C@H]2C(=O)CC[C@@H]2/C=C/C(O)Cc2cccc(C(F)(F)F)c2)cc1 (single isomer, unassigned) [Entry 11]
2. O=C(O)c1ccc(CC[C@H]2C(=O)CC[C@@H]2/C=C/C(O)Cc2cccc(Br)c2)cc1 (single isomer, unassigned) [Entry 10]

[5.50, 6.02]

====

What EP2 Ki (nM) was measured for each of the following?
Molecular target: EP2 (Homo sapiens (Human))
Test: EP2 binding assay (Ki)

// input: 3 compounds below; output: EP2 Ki (nM) for each
1. O=C(O)c1ccc(CC[C@H]2C(=O)CC[C@@H]2/C=C/C(O)Cc2ccc3ccsc3c2)cc1 (stereo partly shown) [Entry 15]
2. O=C(O)c1ccc(CC[C@H]2C(=O)CC[C@@H]2/C=C/C(O)Cc2sc3ccccc3c2Cl)cc1 (single isomer, unassigned) [Entry 3]
3. COc1cc2ccccc2cc1CC(O)/C=C/[C@H]1CCC(=O)[C@@H]1CCc1ccc(C(=O)O)cc1 (stereo partly shown) [Entry 17]

[">10K", ">10K", ">10K"]

Quick check: EP2 Ki (nM) of O=C(O)c1ccc(CC[C@H]2C(=O)CC[C@@H]2/C=C/C(O)Cc2ccc3ccccc3c2)cc1 (single isomer, unassigned) [Entry 1] ?
>10K
